Tested on: SF-268 CNS
Experiment: NCI-60 one-dose screen, 48 h (100 = growth as untreated, 0 = no growth, -100 = all killed)
Conditions: 10 µM unless noted
Compounds without any hit were thinned out: in the full panel of roughly 83,000, 20% have a hit. Active and inactive are the calls of the source. How the source made its calls: active means growth percent below 10; inactive means the rest.

{"compound": "COc1cccc(-c2ccc3c(c2)C2CCN(Cc4ccccc4)C3C2)c1 (stereo unspecified)", "study-target": "SF-268 CNS", "growth": "86.9% (inactive)"}
{"compound": "Cl.Fc1c[c-]c(-c2ccccn2)c(F)c1.[Pt].c1ccc([PH+](CC[PH+](c2ccccc2)c2ccccc2)c2ccccc2)cc1", "study-target": "SF-268 CNS", "growth": "-57.7% (active)"}
{"compound": "Cc1ccccc1-n1nnc(C(=O)Nc2nc(-c3ccccc3)c(-c3ccccc3)s2)c1C", "study-target": "SF-268 CNS", "growth": "69.6% [50 µM] (inactive)"}
{"compound": "C=C1CC[C@@H]2[C@@](C)(CCC[C@]2(C)C(=O)O)[C@@H]1CC[C@H](CO)CCO", "study-target": "SF-268 CNS", "growth": "99.8% (inactive)"}
{"compound": "CCN(CC)CCCNc1ccc(C)c2sc3ccccc3c(=O)c12", "study-target": "SF-268 CNS", "growth": "48.1% (inactive)"}
{"compound": "COc1ccc(/C=C2\\CN(Cc3cn(CCCNc4ccnc5cc(Cl)ccc45)nn3)C/C(=C\\c3ccc(OC)cc3)C2=O)cc1", "study-target": "SF-268 CNS", "growth": "45.5% (inactive)"}
{"compound": "O=C(CC(O)c1ccccc1)Nc1ccccn1 (stereo unspecified)", "study-target": "SF-268 CNS", "growth": "103% (inactive)"}
{"compound": "COc1cc(-c2nc3ccccc3o2)cc(CN2CCN(c3ccccc3)CC2)c1O", "study-target": "SF-268 CNS", "growth": "83.3% (inactive)"}
{"compound": "COc1cc(/C=C2\\C(=O)N(c3c(Cl)cccc3Cl)c3ccccc32)cc(OC)c1O", "study-target": "SF-268 CNS", "growth": "40.9% (inactive)"}
{"compound": "COc1cc(/C=C2\\C(=O)Nc3ccccc32)cc(OC)c1O", "study-target": "SF-268 CNS", "growth": "78.3% (inactive)"}
{"compound": "CC(=O)Nc1ccccc1-c1n[nH]c(=O)[nH]c1=O", "study-target": "SF-268 CNS", "growth": "105% (inactive)"}

* * *

Tested on: NCI-H522 lung
Assay: NCI-60 one-dose screen, 48 h
Settings: 10 µM
This is part of a sample that, as a whole, favours compounds with a hit. Of some 83,000 tested, about 20% had one in any assay. The source made the active and inactive calls. Rule for the calls: active = growth percent below 10; inactive = the rest.
Labels: 1 = active, 0 = inactive

{"molecule": "Nc1nc(N)c(C=Nc2ccc(Br)cc2)c(Nc2ccc(Br)cc2)n1", "label": 0}
{"molecule": "NC(=S)N/N=C1\\c2ccccc2-c2c(F)c(F)c(F)c(F)c21", "label": 0}
{"molecule": "COC(=O)c1c2c(c(C)[n+]([O-])c1C)C(=O)C=C(NCc1ccc(F)cc1)C2=O", "label": 1}
{"molecule": "Cc1nc2cc(Nc3nc(N4CCCCC4)nc(N4CCOCC4)n3)ccc2n1Cc1ccccc1", "label": 0}
{"molecule": "CCCCCCCC/C=C\\CCCCCCCCOc1cccc(CC(=O)NCC[N+]2(C)CCCCC2)c1", "label": 0}
{"molecule": "COc1ccc2nc(-n3nc(C)cc3C)c(-n3nc(C)cc3C)nc2c1", "label": 0}
{"molecule": "CC1SC(c2ccc(Cl)cc2)N(CCc2cccs2)C1=O (stereo not drawn)", "label": 1}
{"molecule": "CCOC(=O)c1c(-c2cc(OC)c(OC)c(OC)c2)csc1N", "label": 0}

* * *

Tested on: NCI/ADR-RES ovarian
Experiment: NCI-60 one-dose screen, 48 h (100 = growth as untreated, 0 = no growth, -100 = all killed)
Settings: 10 µM unless noted
Compounds without any hit were thinned out: in the full panel of roughly 83,000, 20% have a hit.
List of growth values.

{"compound": "NC(=O)c1cc(Cl)ccc1NC(=O)COc1ccccc1", "growth [%]": 31.4}
{"compound": "Cn1c2c(cc(S(=O)(=O)c3ccccc3)c1=O)CCc1c-2cnn1-c1cccc(Cl)c1", "growth [%]": 90.6}
{"compound": "COc1ccc(-c2nc3sccn3c2/C=C/C(=O)c2cc(OC)c(OC)c(OC)c2)cc1OC", "growth [%]": -9.5}
{"compound": "Cl.Fc1c[c-]c(-c2ccccn2)c(F)c1.[Pt].c1ccc([PH+](CC[PH+](c2ccccc2)c2ccccc2)c2ccccc2)cc1", "growth [%]": -35.4}
{"compound": "CC(C)(C)[Si](C)(C)OC1[C@@H](O[Si](C)(C)C(C)(C)C)[C@@H](CNC(=O)NC(=O)C(F)(F)F)O[C@H]1n1cnc2c(NC(=O)Nc3ccccc3)ncnc21 (stereo not given in full)", "growth [%]": 85.5}
{"compound": "CC1=C(C/C=C(\\C)CCC[C@H](C)CCC[C@H](C)CCCC(C)C)C(=O)c2ccccc2C1=O", "growth [%]": 111}
{"compound": "COc1ccc(/C=C/C(=O)N2CCC(O)CC2)cc1OC1CCCC1", "growth [%]": 106}
{"compound": "CCOC(=O)c1cc2c(n(C)c1=O)-c1cnn(-c3ccc(OC)cc3)c1CC2", "growth [%]": 114}
{"compound": "COc1ccc(-c2nc3sc(C)cn3c2/C=C/C(=O)c2cc(OC)c(OC)c(OC)c2)cc1", "growth [%]": 21.8}
{"compound": "COc1ccc(OC)c2ncccc12", "growth [%]": 100}
{"compound": "N#CC1=C(N)Oc2cc(N)ccc2C1c1ccc(F)cc1 (stereo not given)", "growth [%]": 44.9}
{"compound": "NC(=O)c1cc(I)ccc1NC(=O)COc1ccccc1", "growth [%]": 4.28}
{"compound": "O=S(=O)(Nc1ccc(Cl)c(Cl)c1)c1ccc(-c2cnc(C3CC3)o2)cc1", "growth [%]": 5.86}
{"compound": "Cc1nc2cc(Nc3nc(N4CCOCC4)nc(N4CCN(C)CC4)n3)ccc2n1Cc1ccccc1", "growth [%]": 110}
{"compound": "Oc1ccc(Cl)cc1CNc1nc2ccccc2[nH]1", "growth [%]": 38.6}

* * *

System: SK-OV-3 ovarian
Experiment: NCI-60 one-dose screen, 48 h (100 = growth as untreated, 0 = no growth, -100 = all killed)
Conditions: 10 µM
The panel holds about 83,000 compounds, 20% with a hit somewhere; the sample as a whole holds those more often.
Criterion: growth strictly under 70%. Met: yes (1). Not met: no (0).

{"compound": "Cc1ccc2nc(NC(=O)CSC(=S)N3CCN(Cc4ccccc4)CC3)sc2c1", "label": "yes (1)"}
{"compound": "Cc1ccc(N=c2nc3sc4c(C)ccc(C)c4n3c(N)c2C#N)cc1", "label": "no (0)"}
{"compound": "COc1ccc(-c2nn(-c3ccc(NC(=O)c4ccc(Cl)c(Cl)c4)cc3)cc2-c2ccncc2)cc1Cl", "label": "yes (1)"}
{"compound": "O=c1ccc2ccccc2o1", "label": "no (0)"}
{"compound": "CCCCCn1c(=N)n(CC(O)COc2cccc(C)c2)c2ccccc21 (stereo not drawn)", "label": "yes (1)"}
{"compound": "Cc1cc(Cl)c2c(Cl)ccc(Cl)c2n1", "label": "no (0)"}
{"compound": "COc1cccc(C2CC(=O)Nc3cc4c(cc32)CCC4)c1OC (stereo not drawn)", "label": "yes (1)"}
{"compound": "O=S(=O)(OCCO)c1ccccc1", "label": "no (0)"}

* * *

System: KM12 colon
Assay: NCI-60 one-dose screen, 48 h (100 = growth as untreated, 0 = no growth, -100 = all killed)
Settings: 10 µM unless noted
About 83,000 compounds went through this panel and 20% of them were active in at least one assay; those are over-represented in the sample as a whole. Active and inactive are the calls of the source. How the source made its calls: active means growth percent below 10; inactive means the rest.
List of growth values.

{"compound": "O=C1CCC(N2C(=O)c3cccc(NCCOCCOCCNC(=O)c4cc5c(o4)C(=O)c4ccccc4C5=O)c3C2=O)C(=O)N1 (stereo not given)", "study-target": "KM12 colon", "growth": "-8.32% (active)"}
{"compound": "COc1ccc2nc(-n3nc(C)cc3C)c(-n3nc(C)cc3C)nc2c1", "study-target": "KM12 colon", "growth": "116% (inactive)"}
{"compound": "COC(=O)c1c2c(c(C)[n+]([O-])c1C)C(=O)C=C(NCc1ccc(F)c(Cl)c1)C2=O", "study-target": "KM12 colon", "growth": "-16.5% (active)"}
{"compound": "Cc1nc2cc(Nc3nc(N4CCOCC4)nc(N4CCN(C)CC4)n3)ccc2n1Cc1ccccc1", "study-target": "KM12 colon", "growth": "115% (inactive)"}
{"compound": "COc1ccc(-c2[nH]ncc2Nc2cc(OC)c(OC)c(OC)c2)cc1", "study-target": "KM12 colon", "growth": "32.5% (inactive)"}
{"compound": "Brc1ccc(SCN(CSc2ccc(Br)cc2)Cc2ccccc2)cc1", "study-target": "KM12 colon", "growth": "43.2% (inactive)"}
{"compound": "O=c1c2c(=NCCN3CCCC3)cc3c(=O)n(CCCN4CCOCC4)c(=O)c4c(-c5ccc(CN6CCCC6)cc5)cc(c(O)n1CCCN1CCOCC1)c2c4-3", "study-target": "KM12 colon", "growth": "-47.7% (active)"}
{"compound": "COc1cc(-c2nc(Nc3nc4ccccc4[nH]3)nc(N)c2C#N)cc(OC)c1OC", "study-target": "KM12 colon", "growth": "36.6% (inactive)"}
{"compound": "CN1CCN(C)c2cncc(Br)c2C1=O", "study-target": "KM12 colon", "growth": "105% (inactive)"}
{"compound": "Cc1c(NCC(=O)Nc2nc3ccccc3[nH]2)c(=O)n(-c2ccccc2)n1C", "study-target": "KM12 colon", "growth": "112% (inactive)"}
